testedTarget: T1, human CD48 (on primary human peripheral blood mononuclear cells) (human, UniProt P09326 27-220)
T1 sequence: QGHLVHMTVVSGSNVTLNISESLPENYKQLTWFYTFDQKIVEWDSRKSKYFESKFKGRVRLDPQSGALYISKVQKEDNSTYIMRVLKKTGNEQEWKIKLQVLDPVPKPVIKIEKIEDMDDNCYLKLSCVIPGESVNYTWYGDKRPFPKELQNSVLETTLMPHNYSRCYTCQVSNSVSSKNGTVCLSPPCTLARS
experiment: cell-based or functional assay
Provide the recorded Inhibition of IFN-gamma Release IC50; Donor 7 for the entries that follow.
Numbers only, in Molar.

[
  {
    "binder": "H4H1772P (antibody, human IgG4, V domains shown, Human IgG4 Fc (H4H)) VH: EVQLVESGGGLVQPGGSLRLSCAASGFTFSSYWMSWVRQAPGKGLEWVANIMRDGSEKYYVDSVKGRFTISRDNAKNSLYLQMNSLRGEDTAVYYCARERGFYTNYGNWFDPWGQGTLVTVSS VL: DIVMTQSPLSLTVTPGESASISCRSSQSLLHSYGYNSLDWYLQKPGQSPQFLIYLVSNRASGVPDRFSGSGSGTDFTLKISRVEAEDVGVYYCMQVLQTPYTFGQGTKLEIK",
    "observedResult": "2.2e-11"
  }
]

Below are 3 binders. Give each one its Inhibition of IFN-gamma Release IC50; Donor 7.
1. H2M1763N (antibody, mouse IgG2, V domains shown, Human variable domains, mouse IgG2 Fc (H2M)) VH: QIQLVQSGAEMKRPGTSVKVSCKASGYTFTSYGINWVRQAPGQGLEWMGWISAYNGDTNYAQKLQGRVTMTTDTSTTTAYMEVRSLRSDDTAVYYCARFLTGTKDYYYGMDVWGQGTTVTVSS VL: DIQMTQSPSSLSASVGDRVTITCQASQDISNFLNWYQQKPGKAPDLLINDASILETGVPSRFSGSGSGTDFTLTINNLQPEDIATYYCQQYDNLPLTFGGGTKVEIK
2. H4H1774P (antibody, human IgG4, V domains shown, Human IgG4 Fc (H4H)) VH: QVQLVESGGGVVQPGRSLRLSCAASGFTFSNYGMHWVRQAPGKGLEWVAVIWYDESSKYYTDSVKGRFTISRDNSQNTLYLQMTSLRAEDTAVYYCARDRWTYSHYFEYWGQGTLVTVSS VL: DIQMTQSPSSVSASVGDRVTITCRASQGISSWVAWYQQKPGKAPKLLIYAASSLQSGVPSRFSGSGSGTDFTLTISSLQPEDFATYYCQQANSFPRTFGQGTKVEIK
3. H2M1707N (antibody, V domains shown, Human variable domains, mouse IgG2 Fc (H2M)) VH: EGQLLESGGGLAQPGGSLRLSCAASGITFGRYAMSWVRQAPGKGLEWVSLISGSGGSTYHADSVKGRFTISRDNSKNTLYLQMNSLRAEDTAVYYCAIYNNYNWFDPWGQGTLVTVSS VL: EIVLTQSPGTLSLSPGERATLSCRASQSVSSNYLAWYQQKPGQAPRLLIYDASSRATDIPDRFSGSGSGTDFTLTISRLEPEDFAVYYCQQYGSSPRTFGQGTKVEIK

1.8e-11
9.5e-12
1.9e-11

// each binder listed below needs its Inhibition of IFN-gamma Release IC50; Donor 7
1. H4H1779P (antibody, human IgG4, V domains shown, Human IgG4 Fc (H4H)) VH: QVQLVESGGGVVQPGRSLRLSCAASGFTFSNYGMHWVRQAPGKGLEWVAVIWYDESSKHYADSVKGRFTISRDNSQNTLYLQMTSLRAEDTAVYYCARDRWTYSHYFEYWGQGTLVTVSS VL: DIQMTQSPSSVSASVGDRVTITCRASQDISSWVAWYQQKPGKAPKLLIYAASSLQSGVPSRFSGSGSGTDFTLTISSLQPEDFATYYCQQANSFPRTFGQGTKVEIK
2. H2M1713N (antibody, mouse IgG2, V domains shown, Human variable domains, mouse IgG2 Fc (H2M)) VH: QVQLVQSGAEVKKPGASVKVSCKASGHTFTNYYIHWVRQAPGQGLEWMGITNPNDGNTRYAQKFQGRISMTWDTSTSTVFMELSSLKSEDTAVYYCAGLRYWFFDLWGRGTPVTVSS VL: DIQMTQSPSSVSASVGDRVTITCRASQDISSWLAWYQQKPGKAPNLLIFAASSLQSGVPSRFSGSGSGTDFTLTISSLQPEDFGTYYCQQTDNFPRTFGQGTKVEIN

1. 1.5e-11
2. 1e-10
